binders and their reported pKd
Molecular target: T1, SARS-CoV2 Spike ecto foldon Trimer expressed with a C-terminal myc-myc-hexahistidine (SARS-CoV-2, UniProt P0DTC2 14-1213)
T1 construct: extracellular domain
Test: SPR Biacore, mAb captured by anti-hFc, 25C
pKd (log units): -log10 of the concentration in mol/L.

binder="mAb13459 (antibody, V domains shown) VH: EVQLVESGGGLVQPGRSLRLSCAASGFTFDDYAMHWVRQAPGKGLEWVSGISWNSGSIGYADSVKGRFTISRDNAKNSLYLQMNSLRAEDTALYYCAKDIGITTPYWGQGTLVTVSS VL: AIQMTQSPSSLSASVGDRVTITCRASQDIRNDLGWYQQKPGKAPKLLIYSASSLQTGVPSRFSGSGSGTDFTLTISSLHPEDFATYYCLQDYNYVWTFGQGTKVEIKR" measured=10.41

Consider the additional binder presented here.
Problem: Please report the recorded pKd for mAb15163 (antibody, V domains shown) VH: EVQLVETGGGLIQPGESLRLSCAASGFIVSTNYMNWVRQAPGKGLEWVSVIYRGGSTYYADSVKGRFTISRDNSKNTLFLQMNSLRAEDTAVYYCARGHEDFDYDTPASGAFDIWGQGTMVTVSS VL: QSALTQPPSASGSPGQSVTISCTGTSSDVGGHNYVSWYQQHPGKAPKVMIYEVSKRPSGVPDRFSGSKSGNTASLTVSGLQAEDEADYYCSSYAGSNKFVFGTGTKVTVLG .
Solution: 10.25

Cited source: patent US20260069689A1
